- ASSAYED SYSTEM: UniProtKB Q8NH80
- Sequence (Q8NH80 1-290): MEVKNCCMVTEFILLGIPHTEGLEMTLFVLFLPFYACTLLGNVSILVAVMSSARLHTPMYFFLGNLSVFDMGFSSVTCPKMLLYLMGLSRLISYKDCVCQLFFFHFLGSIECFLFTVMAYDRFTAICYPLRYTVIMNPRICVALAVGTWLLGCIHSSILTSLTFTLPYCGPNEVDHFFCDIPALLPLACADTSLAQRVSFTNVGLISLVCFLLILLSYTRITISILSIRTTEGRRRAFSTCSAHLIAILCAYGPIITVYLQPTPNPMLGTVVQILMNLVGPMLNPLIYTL
- TEST DESCRIPTION: Confirmatory dose-response analysis of library-hit OR with cognate ligand, wild-type vs C-terminal domain SEQ ID NO: 221 (Table 17);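 further: Wild-type receptor sequences expressed from the pcDNA3.1(+) vector and compared with the C-terminally modified receptors in dose-response tests using each receptor's cognate ligand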
- ASSAY CONTEXT: read-out: Potency, EC50 changed C-term; OR10D3, modified C-terminus SEQ ID NO: 221 (SEQ ID NO: 671)
pEC50: −log10 of the molar value.
OBSERVABLE: pEC50

molecule="CC=Cc1ccc(O)c(OC)c1 [Isoeugenol]" test_result=5.08

====

- ASSAYED SYSTEM: OR5B12 (Homo sapiens, UniProt Q96R08, C141R)
- Construct: Improved functional expression of modified OR-genes containing the truncated, optimized C-terminus; expressed in transfected cells; host or cells: HEK293T stably expressing human RTP1S(V227I) and RTP2(L220R)
- Sequence (Q96R08 with tags, fused parts or gaps C141R): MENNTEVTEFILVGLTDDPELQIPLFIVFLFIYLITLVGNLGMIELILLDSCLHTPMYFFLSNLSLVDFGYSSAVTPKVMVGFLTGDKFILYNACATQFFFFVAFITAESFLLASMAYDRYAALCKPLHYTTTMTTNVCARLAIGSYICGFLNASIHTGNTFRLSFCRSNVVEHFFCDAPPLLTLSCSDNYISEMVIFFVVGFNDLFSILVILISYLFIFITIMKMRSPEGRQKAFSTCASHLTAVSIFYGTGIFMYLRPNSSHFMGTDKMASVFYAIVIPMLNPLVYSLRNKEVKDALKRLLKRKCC
- TEST DESCRIPTION: CRE-luciferase assay, HEK293T cells expressing OR5B12 (wild-type / modified C-terminus)
- Type: cell-based
- ASSAY CONTEXT: OR5B12 variant, 31 μM Hedione HC
OBSERVABLE: % of the activation by the optimized sequence RNKEVKDALKRLLKRKCC (%)

substance="SEQ ID NO: 115 (RNKEVKKAIKRLLKRKCC; source 1..18: note = C-terminal domain sequence)" test_result=349.2
substance="SEQ ID NO: 150 (RNKEVKDALKRLLKRKCRKK; source 1..20: note = C-terminal domain sequence)" test_result=182.3
substance="SEQ ID NO: 137 (RNKEVKDALKRLLKRKCCM; source 1..19: note = C-terminal domain sequence)" test_result=177.47
substance="SEQ ID NO: 114 (RNKEVKRAIKRLLKRKCC; source 1..18: note = C-terminal domain sequence)" test_result=317.8
substance="SEQ ID NO: 116 (RNKEVKRAIKRLFKRKCC; source 1..18: note = C-terminal domain sequence)" test_result=433.2
substance="SEQ ID NO: 10 (RNKEVKDALKRLLKRK; source 1..16: note = C-terminal domain sequence)" test_result=0
substance="SEQ ID NO: 219 (RNKEVKDALKRLLKRKCCRRRR; source 1..22: note = C-terminal domain sequence)" test_result=244.3
substance="SEQ ID NO: 220 (RNKEVKKAIKRLLKRKCCRRR; source 1..21: note = C-terminal domain sequence)" test_result=1092.9
substance="SEQ ID NO: 139 (RNKEVKDALKRLLKRKCCP; source 1..19: note = C-terminal domain sequence)" test_result=98.68
substance="SEQ ID NO: 146 (RNKEVKDALKRLLKRKCCR; source 1..19: note = C-terminal domain sequence)" test_result=619.88
substance="SEQ ID NO: 136 (RNKEVKDALKRLLKRKCCL; source 1..19: note = C-terminal domain sequence)" test_result=533.84
substance="SEQ ID NO: 198 (RNKEVKDALKRLLKRKC; source 1..17: note = C-terminal domain sequence)" test_result=0
substance="SEQ ID NO: 143 (RNKEVKDALKRLLKRKCCN; source 1..19: note = C-terminal domain sequence)" test_result=137.13
substance="SEQ ID NO: 151 (RNKEVKDALKRLLKRKCCRR; source 1..20: note = C-terminal domain sequence)" test_result=240.6
